# Tested on: LOX IMVI melanoma
# measurementProtocol: NCI-60 one-dose screen, 48 h (100 = growth as untreated, 0 = no growth, -100 = all killed)
# studyConditions: 10 µM unless noted
# Description: Growth inhibition of the LOX IMVI human tumor cell line is measured as a screen for anti-cancer activity. Cells are grown in 96 well plates and exposed to the test compound for 48 hours. Compounds are tested at a single concentration, which is 10^-5 M for most compounds. The reported endpoint is percent growth (GI% or GIPRCNT), where numbers from 0 - 100% represent growth inhibition, and numbers from -100% - 0 represent cell death. For example, a value of 40 represents 60% growth inhibition. […]
About 83,000 compounds went through this panel and 20% of them were active in at least one assay; those are over-represented in the sample as a whole.
parameter: growth (%)
Respond with the bare value in %.

Tell me the measured growth of COc1cccc(-c2nn(C(C)(C)C)cc2-c2ccnc(NCCCNS(=O)(=O)c3cccc4ccccc34)c2)c1 , please.
99.8

Now try O=C(/C=C/c1ccccc1)c1ccc(O)c(CN2CCN(c3cc4c(cc3F)c(=O)c(C(=O)O)cn4C3CC3)CC2)c1 .
6.26

Now try Cc1ccc(NS(=O)(=O)c2ccc(-c3cnc(C4CC4)o3)cc2)cc1C .
39.4

Now try Cc1ccc(/C=C2\SC(=S)N(CC(=O)NCCCN3CCOCC3)C2=O)cc1 .
91.7

Now try CSc1nc(-c2cccc(NC(=O)CCl)c2)c(C#N)c(=O)n1C .
-91.6

Attribution: PubChem BioAssay (NCI)
